meta.source: patent US20110294782A1

measured target: PAK6 (Homo sapiens, UniProt Q9NQU5)
Sequence (Q9NQU5 whole entry): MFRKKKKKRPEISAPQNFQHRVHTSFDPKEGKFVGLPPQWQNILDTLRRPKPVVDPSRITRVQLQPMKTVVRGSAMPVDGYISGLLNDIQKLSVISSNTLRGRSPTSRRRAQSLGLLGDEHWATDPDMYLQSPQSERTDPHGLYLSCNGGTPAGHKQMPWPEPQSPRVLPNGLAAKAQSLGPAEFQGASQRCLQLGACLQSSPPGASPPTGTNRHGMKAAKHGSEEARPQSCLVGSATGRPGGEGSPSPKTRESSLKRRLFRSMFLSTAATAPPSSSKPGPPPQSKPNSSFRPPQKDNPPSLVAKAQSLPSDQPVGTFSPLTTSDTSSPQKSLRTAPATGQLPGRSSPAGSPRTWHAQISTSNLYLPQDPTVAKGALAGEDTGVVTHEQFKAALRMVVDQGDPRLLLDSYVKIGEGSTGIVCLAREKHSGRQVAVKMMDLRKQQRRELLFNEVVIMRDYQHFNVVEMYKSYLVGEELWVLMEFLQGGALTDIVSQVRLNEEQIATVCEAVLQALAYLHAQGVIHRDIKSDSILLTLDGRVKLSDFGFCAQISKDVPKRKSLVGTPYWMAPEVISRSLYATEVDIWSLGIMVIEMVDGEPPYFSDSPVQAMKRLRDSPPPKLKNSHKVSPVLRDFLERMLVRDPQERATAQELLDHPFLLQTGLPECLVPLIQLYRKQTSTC
readout label: Kd

INSERT INTO measurements (compound_structure_string, assay_result) VALUES
  ('Nc1nc(Nc2ccc(S(N)(=O)=O)cc2)nn1C(=O)c1c(F)cccc1F', '< 5 µM');

In the following, a different compound is considered.
Tested system PAK6 (Homo sapiens, UniProt Q9NQU5); Kd recorded for CCOc1cc2ncc(C#N)c(Nc3ccc(F)c(Cl)c3)c2cc1NC(=O)/C=C/CN(C)C was ≥ 10 µM

---

measured target: PAK1 (Homo sapiens, UniProt Q13153)
Construct: full length PAK or a PAK catalytic domain expressed on the surface of T7 bacteriophage; host or cells: T7 phage (modified T7 Select 10-3) grown in a BL21-derived E. coli host
Sequence (Q13153 whole entry, the tested form may be a part): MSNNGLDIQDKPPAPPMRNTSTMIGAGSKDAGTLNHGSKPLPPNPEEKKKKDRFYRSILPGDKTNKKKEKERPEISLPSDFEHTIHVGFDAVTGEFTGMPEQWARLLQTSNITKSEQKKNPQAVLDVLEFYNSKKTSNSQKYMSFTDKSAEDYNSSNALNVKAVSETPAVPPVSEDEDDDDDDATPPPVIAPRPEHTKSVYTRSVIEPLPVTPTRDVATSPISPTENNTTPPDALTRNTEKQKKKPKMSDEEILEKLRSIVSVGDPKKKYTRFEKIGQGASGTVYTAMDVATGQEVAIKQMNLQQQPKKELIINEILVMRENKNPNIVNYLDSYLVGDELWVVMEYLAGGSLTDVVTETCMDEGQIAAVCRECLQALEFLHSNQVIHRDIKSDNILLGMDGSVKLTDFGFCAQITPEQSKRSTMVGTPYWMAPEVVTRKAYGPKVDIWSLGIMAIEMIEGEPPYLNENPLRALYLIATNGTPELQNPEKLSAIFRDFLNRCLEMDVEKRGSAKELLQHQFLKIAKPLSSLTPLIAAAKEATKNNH
assay info: Competitive binding assay (Ambit), phage-displayed PAK vs immobilized staurosporine bait
experimental parameters: PAK1; 25° C., 1 hour, 0.1% DMSO; read-out: Kd value, Test PAK Inhibitor Affinity Assay
readout label: Kd

Field Kd (entry CCOc1cc2ncc(C#N)c(Nc3ccc(F)c(Cl)c3)c2cc1NC(=O)/C=C/CN(C)C ) reads < 5 µM

---

measured target: PAK2 (Homo sapiens, UniProt Q13177)
Construct: full length PAK or a PAK catalytic domain expressed on the surface of T7 bacteriophage; host or cells: T7 phage (modified T7 Select 10-3) grown in a BL21-derived E. coli host
Sequence (Q13177 whole entry, the tested form may be a part): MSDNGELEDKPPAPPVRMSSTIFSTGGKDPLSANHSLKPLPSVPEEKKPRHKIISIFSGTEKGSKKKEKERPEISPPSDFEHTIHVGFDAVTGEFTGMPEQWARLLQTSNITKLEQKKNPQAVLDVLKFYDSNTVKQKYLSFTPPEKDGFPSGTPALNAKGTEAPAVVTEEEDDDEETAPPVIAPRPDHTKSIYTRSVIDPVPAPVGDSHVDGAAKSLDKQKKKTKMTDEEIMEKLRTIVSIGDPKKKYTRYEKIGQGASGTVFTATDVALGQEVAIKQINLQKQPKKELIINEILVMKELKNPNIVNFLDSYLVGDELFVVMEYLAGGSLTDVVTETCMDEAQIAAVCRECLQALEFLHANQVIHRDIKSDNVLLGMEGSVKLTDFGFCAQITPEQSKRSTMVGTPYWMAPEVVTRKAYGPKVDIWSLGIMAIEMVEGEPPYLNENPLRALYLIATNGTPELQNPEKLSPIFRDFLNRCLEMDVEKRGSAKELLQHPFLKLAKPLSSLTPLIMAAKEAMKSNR
assay info: Competitive binding assay (Ambit), phage-displayed PAK vs immobilized staurosporine bait
experimental parameters: PAK2; 25° C., 1 hour, 0.1% DMSO; read-out: Kd value, Test PAK Inhibitor Affinity Assay
pKd: −log10 of the molar value.
readout label: pKd

Field pKd (entry CCOc1cc2ncc(C#N)c(Nc3ccc(F)c(Cl)c3)c2cc1NC(=O)/C=C/CN(C)C ) reads ≤ 5.00

---

measured target: UniProtKB O96013
Sequence (O96013 whole entry): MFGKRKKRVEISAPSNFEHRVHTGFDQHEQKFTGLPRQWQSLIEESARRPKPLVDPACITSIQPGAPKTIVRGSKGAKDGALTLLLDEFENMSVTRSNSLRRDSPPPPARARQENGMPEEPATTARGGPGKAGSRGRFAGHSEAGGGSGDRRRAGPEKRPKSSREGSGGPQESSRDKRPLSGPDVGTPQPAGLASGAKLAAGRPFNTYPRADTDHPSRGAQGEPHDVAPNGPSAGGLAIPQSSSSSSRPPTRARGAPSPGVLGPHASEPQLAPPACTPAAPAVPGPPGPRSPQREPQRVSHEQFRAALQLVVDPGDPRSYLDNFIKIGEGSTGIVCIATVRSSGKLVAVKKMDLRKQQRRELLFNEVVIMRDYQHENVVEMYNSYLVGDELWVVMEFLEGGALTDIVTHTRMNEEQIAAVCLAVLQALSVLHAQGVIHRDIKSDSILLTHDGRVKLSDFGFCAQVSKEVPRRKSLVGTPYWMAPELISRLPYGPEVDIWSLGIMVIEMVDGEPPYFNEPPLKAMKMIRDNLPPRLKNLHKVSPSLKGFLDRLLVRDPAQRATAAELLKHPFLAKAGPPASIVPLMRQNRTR
pKd: −log10 of the molar value.
readout label: pKd

Tested system UniProtKB O96013; pKd recorded for CCOc1cc2ncc(C#N)c(Nc3ccc(F)c(Cl)c3)c2cc1NC(=O)/C=C/CN(C)C [EKB-569] was ≤ 5.00
